- assayRemarks: Cmax in mouse at 10 mg/kg, po administered as single dose
- Assay type: ADME, organism-based
- conditionContext: in vivo
recordedEndpoint: Cmax (ng/mL)
Give the value, in units of ng/mL, as a plain number.

Query: Requested read-out: Cmax. Entry: Cc1nc2ccc(-c3ccnc(N)c3)nc2n1-c1ccc(N2CCN(CC#Cc3ccc(N4CCC(C(=O)N5CCC(n6cc(CNc7cccc8c7C(=O)N(C7CCC(=O)NC7=O)C8=O)cn6)CC5)CC4)nc3)CC2)c(F)c1 (stereo unspecified)
Result: 18.5

* * *

- assayRemarks: Tmax in mouse at 10 mg/kg, ip administered as single dose
- Type: ADME, organism-based
- conditionContext: in vivo
recordedEndpoint: Tmax (min)
Give the value, in units of min, as a plain number.

Query: Requested read-out: Tmax. Entry: Cc1nc2ccc(-c3ccnc(N)c3)nc2n1-c1ccc(N2CCN(CC#Cc3ccc(N4CCC(C(=O)N5CCC(n6cc(CNc7cccc8c7C(=O)N(C7CCC(=O)NC7=O)C8=O)cn6)CC5)CC4)nc3)CC2)c(F)c1 (stereo unspecified)
Result: 15

* * *

- assayRemarks: Cmax in mouse at 10 mg/kg, ip administered as single dose
- Assay type: ADME, organism-based
- conditionContext: in vivo
recordedEndpoint: Cmax (ng/mL)
Give the value, in units of ng/mL, as a plain number.

Query: Requested read-out: Cmax. Entry: Cc1nc2ccc(-c3ccnc(N)c3)nc2n1-c1ccc(N2CCN(CC#Cc3ccc(N4CCC(C(=O)N5CCC(n6cc(CNc7cccc8c7C(=O)N(C7CCC(=O)NC7=O)C8=O)cn6)CC5)CC4)nc3)CC2)c(F)c1 (stereo unspecified)
Result: 8130

* * *

- assayRemarks: AUC last in mouse at 10 mg/kg, po administered as single dose
- Format: ADME, organism-based
- conditionContext: in vivo
recordedEndpoint: AUC(0-t) (ng·h/mL)
Give the value, in units of ng·h/mL, as a plain number.

Query: Requested read-out: AUC(0-t). Entry: Cc1nc2ccc(-c3ccnc(N)c3)nc2n1-c1ccc(N2CCN(CC#Cc3ccc(N4CCC(C(=O)N5CCC(n6cc(CNc7cccc8c7C(=O)N(C7CCC(=O)NC7=O)C8=O)cn6)CC5)CC4)nc3)CC2)c(F)c1 (stereo unspecified)
Result: 56

* * *

- assayRemarks: Half life in mouse plasma
- Type: ADME, cell-free
recordedEndpoint: half-life (min)
Give the value, in units of min, as a plain number.

Query: Requested read-out: half-life. Entry: Cc1nc2ccc(-c3ccnc(N)c3)nc2n1-c1ccc(N2CCN(CC#Cc3ccc(N4CCC(C(=O)N5CCC(n6cc(CNc7cccc8c7C(=O)N(C7CCC(=O)NC7=O)C8=O)cn6)CC5)CC4)nc3)CC2)c(F)c1 (stereo unspecified)
Result: 418

* * *

- assayRemarks: Solubility of the compound in PBS buffer
- Format: physicochemical
recordedEndpoint: solubility

Query: Requested read-out: solubility. Entry: Cc1nc2ccc(-c3ccnc(N)c3)nc2n1-c1ccc(N2CCN(CC#Cc3ccc(N4CCC(C(=O)N5CCC(n6cc(CNc7cccc8c7C(=O)N(C7CCC(=O)NC7=O)C8=O)cn6)CC5)CC4)nc3)CC2)c(F)c1 (stereo unspecified)
Result: < 9 nM

* * *

- assayRemarks: Half life in mouse at 1 mg/kg, iv administered as single dose
- Assay type: ADME, organism-based
- conditionContext: in vivo
recordedEndpoint: half-life (h)
Give the value, in units of h, as a plain number.

Query: Requested read-out: half-life. Entry: Cc1nc2ccc(-c3ccnc(N)c3)nc2n1-c1ccc(N2CCN(CC#Cc3ccc(N4CCC(C(=O)N5CCC(n6cc(CNc7cccc8c7C(=O)N(C7CCC(=O)NC7=O)C8=O)cn6)CC5)CC4)nc3)CC2)c(F)c1 (stereo unspecified)
Result: 3.33

Cited source: ChEMBL document CHEMBL6120970
